Reference source for all entries: PubChem BioAssay AID1159580

test: chemical genetic growth profiling, strain panel (AID 1159580);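 further: tested at 20 µM; growth read once vehicle control cultures reached saturation at 30 °C; 1 = growth at the plate median or of vehicle wells; lower values mean less growth of the strain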; details: S. cerevisiae deletion strains, growth OD, locus YPL256C, strain CLN2, hits give low values
About 2,000 (36%) of roughly 5,500 compounds were called active. Another 18% or so got no clear call; they are omitted. This is one part of the list.
valueType: normalized growth

| compound | obsValue |
| --- | --- |
| OCCc1ccccc1 | 0.981 |
| COc1cc([C@@H]2c3cc4c(cc3[C@@H](O)C3COC(=O)C32)OCO4)cc(OC)c1O (stereo partly drawn) | 1.02 |
| COC(=O)C[C@H]1C2(C)CC34OC5(C)O[C@@]6([C@H](OC(C)=O)C(OC(C)=O)[C@]7(C)C(/C(=C(/O)C(C)C)C(=O)O[C@H]7c7ccoc7)[C@@]6(O5)[C@H](OC(C)=O)[C@@]3(O)C2OC(=O)C(C)C)[C@]14C (stereo partly drawn) | 0.98 |
